- Assay comment: Single dose PK in healthy subjects (Cohorts 1, 2, S1 and S2), plasma
- Format: in vivo, human
- Conditions: human, plasma, iv, 180 mg, 180 mg single IV infusion, healthy subjects; read-out: Vz Mean

| Smiles code | Vd [L] |
| --- | --- |
| COC(=O)N1CCC[C@H](NS(C)(=O)=O)[C@@H]1CO[C@H]1CC[C@@H](c2ccccc2)CC1 | 291 |

---

- Assay comment: Single dose PK in patients with narcolepsy (Cohorts 5, 6 and 7), plasma
- Format: in vivo, human
- Conditions: human, plasma, intravenous, 44.8 mg, Cmpd A 44.8 mg; Mean; Cohort 5, 6, 7; read-out: AUC24

| Smiles code | AUC / ng·h/mL |
| --- | --- |
| COC(=O)N1CCC[C@H](NS(C)(=O)=O)[C@@H]1CO[C@H]1CC[C@@H](c2ccccc2)CC1 | 941 |

---

- Assay comment: Single dose PK in healthy subjects (Cohorts 1, 2, S1 and S2), plasma
- Assay type: in vivo, human
- Conditions: human, plasma, intravenous, 14 mg; 0.5 hr; read-out: Plasma concentration, Maximum
- Description: […]

| Compound | concentration at 0.5 h, ng/mL |
| --- | --- |
| COC(=O)N1CCC[C@H](NS(C)(=O)=O)[C@@H]1CO[C@H]1CC[C@@H](c2ccccc2)CC1 [Compound A] | 27.2 |

---

- Assay comment: Plasma concentrations in healthy subjects (Cohort 4)
- Type: in vivo
- Conditions: human, intravenous, 112 mg, 9 hr, Mean

| Smiles code | concentration at 9 h (ng/mL) |
| --- | --- |
| COC(=O)N1CCC[C@H](NS(C)(=O)=O)[C@@H]1CO[C@H]1CC[C@@H](c2ccccc2)CC1 | 184 |

---

- Assay comment: Single dose PK in healthy subjects (Cohorts 1, 2, S1 and S2), plasma
- Assay type: in vivo, human
- Conditions: human, plasma, intravenous, 240 mg; 8 hr; read-out: Plasma concentration, Mean

| Molecule | concentration at 8 h / ng/mL |
| --- | --- |
| COC(=O)N1CCC[C@H](NS(C)(=O)=O)[C@@H]1CO[C@H]1CC[C@@H](c2ccccc2)CC1 [Compound A] | 474 |

---

- Assay comment: Single dose PK in healthy subjects (Cohorts 1, 2, S1 and S2), plasma
- Type: in vivo, human
- Conditions: human, plasma, intravenous, 7 mg; 1.5 hr After End of Infusion; read-out: Plasma concentration, Mean
Property: concentration at 1.5 h after end of infusion (ng/mL)

| Compound | Observed value |
| --- | --- |
| COC(=O)N1CCC[C@H](NS(C)(=O)=O)[C@@H]1CO[C@H]1CC[C@@H](c2ccccc2)CC1 [Compound A] | 4.25 |

---

- Assay comment: Single dose PK in healthy subjects (Cohorts 1, 2, S1 and S2), plasma
- Format: in vivo, human
- Conditions: human, plasma, intravenous, 7 mg; 3 hr; read-out: Plasma concentration, Q1

| Smiles code | concentration at 3 hr |
| --- | --- |
| COC(=O)N1CCC[C@H](NS(C)(=O)=O)[C@@H]1CO[C@H]1CC[C@@H](c2ccccc2)CC1 | 15.1 ng/mL |

---

- Assay comment: Single dose PK in healthy subjects (Cohorts 1, 2, S1 and S2), plasma
- Type: in vivo, human
- Conditions: human, plasma, iv, 134.4 mg, 134.4 mg single IV infusion, healthy subjects; read-out: AUClast Mean

| Smiles code | Unit descriptor | AUC(0-t) |
| --- | --- | --- |
| COC(=O)N1CCC[C@H](NS(C)(=O)=O)[C@@H]1CO[C@H]1CC[C@@H](c2ccccc2)CC1 | ng·h/mL | 2690 |

---

- Assay comment: Single dose PK in healthy subjects (Cohorts 1, 2, S1 and S2), plasma
- Format: in vivo, human
- Conditions: human, plasma, intravenous, 240 mg; 2 hr; read-out: Plasma concentration, Mean

| Smiles code | concentration at 2 h, ng/mL |
| --- | --- |
| COC(=O)N1CCC[C@H](NS(C)(=O)=O)[C@@H]1CO[C@H]1CC[C@@H](c2ccccc2)CC1 | 403 |

---

- Assay comment: Single dose PK in healthy subjects (Cohorts 1, 2, S1 and S2), plasma
- Assay type: in vivo, human
- Conditions: human, plasma, intravenous, 240 mg; 3 hr; read-out: Plasma concentration, Q1

| Smiles code | concentration at 3 hr, ng/mL |
| --- | --- |
| COC(=O)N1CCC[C@H](NS(C)(=O)=O)[C@@H]1CO[C@H]1CC[C@@H](c2ccccc2)CC1 | 400 |

---

- Assay comment: Single dose PK in healthy subjects (Cohorts 1, 2, S1 and S2), plasma
- Type: in vivo, human
- Conditions: human, plasma, intravenous, 180 mg; 4 hr; read-out: Plasma concentration, Q3

| Smiles code | Unit descriptor | concentration at 4 h |
| --- | --- | --- |
| COC(=O)N1CCC[C@H](NS(C)(=O)=O)[C@@H]1CO[C@H]1CC[C@@H](c2ccccc2)CC1 | ng/mL | 358 |

---

- Assay comment: Multiple-dose PK of intravenous Compound A in patients with NT1 (Cohorts B1, B2), plasma
- Format: in vivo, human
- Conditions: human, plasma, intravenous, 11 mg; Day 1; read-out: AUClast, Geo Mean
Property: AUC(0-t)

| Molecule | Property | Observed value |
| --- | --- | --- |
| COC(=O)N1CCC[C@H](NS(C)(=O)=O)[C@@H]1CO[C@H]1CC[C@@H](c2ccccc2)CC1 [Compound A] | AUC(0-t) | 164 ng·h/mL |

---

- Assay comment: Single dose PK in healthy subjects (Cohorts 1, 2, S1 and S2), plasma
- Assay type: in vivo, human
- Conditions: human, plasma, intravenous, 180 mg; 9 hr; read-out: Plasma concentration, Mean
- Source text: […]

| Smiles code | concentration at 9 h |
| --- | --- |
| COC(=O)N1CCC[C@H](NS(C)(=O)=O)[C@@H]1CO[C@H]1CC[C@@H](c2ccccc2)CC1 | 325 ng/mL |

---

- Assay comment: Single dose PK in healthy subjects (Cohorts 1, 2, S1 and S2), plasma
- Format: in vivo, human
- Conditions: human, plasma, iv, 14 mg, 14 mg single IV infusion, healthy subjects; read-out: AUClast Median
- From the text: […]
Property: AUC(0-t) (ng·h/mL)

| Smiles code | Observed value |
| --- | --- |
| COC(=O)N1CCC[C@H](NS(C)(=O)=O)[C@@H]1CO[C@H]1CC[C@@H](c2ccccc2)CC1 | 322 |

---

- Assay comment: Single dose PK in healthy subjects (Cohorts 1, 2, S1 and S2), plasma
- Assay type: in vivo, human
- Conditions: human, plasma, intravenous, 28 mg; 9 hr; read-out: Plasma concentration, Minimum

| Molecule | concentration at 9 hr |
| --- | --- |
| COC(=O)N1CCC[C@H](NS(C)(=O)=O)[C@@H]1CO[C@H]1CC[C@@H](c2ccccc2)CC1 [Compound A] | 40.6 ng/mL |

---

- Assay comment: Single dose PK in healthy subjects (Cohorts 1, 2, S1 and S2), plasma
- Format: in vivo, human
- Conditions: human, plasma, intravenous, 28 mg; 8 hr; read-out: Plasma concentration, Mean

| Smiles code | Unit descriptor | concentration at 8 hr |
| --- | --- | --- |
| COC(=O)N1CCC[C@H](NS(C)(=O)=O)[C@@H]1CO[C@H]1CC[C@@H](c2ccccc2)CC1 | ng/mL | 48.7 |

---

- Assay comment: Single dose PK in healthy subjects (Cohorts 1, 2, S1 and S2), plasma
- Assay type: in vivo, human
- Conditions: human, plasma, iv, 240 mg, 240 mg single IV infusion; 9 hr; read-out: Plasma Concentration of Cmpd A, Median

| Smiles code | Unit descriptor | concentration at 9 hr |
| --- | --- | --- |
| COC(=O)N1CCC[C@H](NS(C)(=O)=O)[C@@H]1CO[C@H]1CC[C@@H](c2ccccc2)CC1 | ng/mL | 481 |

---

- Assay comment: Single dose PK in healthy subjects (Cohorts 1, 2, S1 and S2), plasma
- Format: in vivo, human
- Conditions: human, plasma, iv, 240 mg, 240 mg single IV infusion; 0.5 hr; read-out: Plasma Concentration of Cmpd A, Median
- Description: […]
Property: concentration at 0.5 hr (ng/mL)

| Smiles code | Property | Unit descriptor | Observed value |
| --- | --- | --- | --- |
| COC(=O)N1CCC[C@H](NS(C)(=O)=O)[C@@H]1CO[C@H]1CC[C@@H](c2ccccc2)CC1 | concentration at 0.5 hr | ng/mL | 264 |

---

- Assay comment: Single dose PK in healthy subjects (Cohorts 1, 2, S1 and S2), plasma
- Format: in vivo, human
- Conditions: human, plasma, iv, 180 mg, 180 mg single IV infusion, healthy subjects; read-out: Vss Median

| Compound | Unit descriptor | Vd |
| --- | --- | --- |
| COC(=O)N1CCC[C@H](NS(C)(=O)=O)[C@@H]1CO[C@H]1CC[C@@H](c2ccccc2)CC1 [Compound A] | L | 81.5 |
